B1: FAM9B (parent)
chain: EDLTAKRKRMKMDKTCSKTKNKSK

# Variants of: B1
# experiment summary: protein stability index of a GFP-peptide fusion (GPS, HEK-293T) (PSI 1-6); higher = more stable;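 also: lentivirally expressed fusions sorted by FACS into six bins by GFP to DsRed ratio, PSI derived from sequencing read proportions per bin multiplied by bin number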
# measurement context: c terminus: a fixed tail appended
Entry flag: fulfilled if protein stability index reaches 5; not fulfilled if it does not.

Some entries whose results are on file:
[
  {
    "mutation code": "A5T",
    "answer label": "not fulfilled"
  },
  {
    "mutation code": "K20S",
    "answer label": "not fulfilled"
  },
  {
    "mutation code": "K14G",
    "answer label": "fulfilled"
  },
  {
    "mutation code": "C16V",
    "answer label": "fulfilled"
  }
]

Would you say M10T shows protein stability index at minimum 5? fulfilled

Determine whether measured protein stability index meets or exceeds 5 for K18F not fulfilled

Does protein stability index meet or surpass 5 for K6G ? fulfilled

Has K8D a recorded protein stability index greater than or equal to 5? fulfilled

In plain terms: is recorded protein stability index at least 5 for K6N ? not fulfilled
